Source listed as patent US12180192B2.

target: human thyroid receptor beta ligand-binding domain (LBD) (Homo sapiens); assay: TR-FRET thyroid receptor beta coactivator assay (THR biochemical assay, Assay 1); settings: THR-beta, TR-FRET coactivator assay; read-out: Activity category Assay 1 (EC50, THR-beta agonist)
Sequence (P10828 217-461 limits assumed): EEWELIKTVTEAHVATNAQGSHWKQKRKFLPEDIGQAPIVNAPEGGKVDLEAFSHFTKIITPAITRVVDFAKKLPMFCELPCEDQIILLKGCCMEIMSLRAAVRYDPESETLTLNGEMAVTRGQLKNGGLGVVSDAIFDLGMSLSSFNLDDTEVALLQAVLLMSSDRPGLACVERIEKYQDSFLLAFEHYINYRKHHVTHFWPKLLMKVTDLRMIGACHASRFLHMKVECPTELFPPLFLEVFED
Quick list: EC50 per entry.
RECORDED_METRIC: EC50

In [3]: df
Out[3]:
                                    compound                             system_tested  recorded_metric               val
 0  CC(C)c1c[nH]c2nnc(Oc3c(Cl)cc(-n4nc(C#N)c(=O)[nH]c4=O)cc3Cl)cc12  human thyroid receptor beta ligand-binding domain (LBD) (Homo sapiens)             EC50      50 to 250 nM
 1  Nc1nn(-c2cc(Cl)c(Oc3n[nH]c(=O)cc3-c3ccc4c(c3)CCCC4)c(Cl)c2)c(=O)[nH]c1=O  human thyroid receptor beta ligand-binding domain (LBD) (Homo sapiens)             EC50           < 50 nM
 2  Nc1nn(-c2cc(Cl)c(Oc3cc(C4Cc5ccccc54)c(=O)[nH]n3)c(Cl)c2)c(=O)[nH]c1=O (stereo not shown) [Compound 158]  human thyroid receptor beta ligand-binding domain (LBD) (Homo sapiens)             EC50           < 50 nM
 3  Nc1nn(-c2cc(Cl)c(Oc3cc(C4CCC4)c(=O)[nH]n3)c(Cl)c2)c(=O)[nH]c1=O  human thyroid receptor beta ligand-binding domain (LBD) (Homo sapiens)             EC50           < 50 nM
 4  N#Cc1nn(-c2cc(Cl)c(Oc3ccc4[nH]cc(-c5ccccc5)c4c3)c(Cl)c2)c(=O)[nH]c1=O  human thyroid receptor beta ligand-binding domain (LBD) (Homo sapiens)             EC50        > 25000 nM
 5  CC(C)c1cc(Oc2c(Cl)cc(-n3nc(C#N)c(=O)[nH]c3=O)c3c2CC3)n[nH]c1=O  human thyroid receptor beta ligand-binding domain (LBD) (Homo sapiens)             EC50    250 to 1000 nM
 6  C[C@@H](c1cc(Oc2c(Cl)cc(-n3nc(N)c(=O)[nH]c3=O)cc2Cl)n[nH]c1=O)C1CCC1  human thyroid receptor beta ligand-binding domain (LBD) (Homo sapiens)             EC50      50 to 250 nM
 7  N#CC1CCC1c1cc(Oc2c(Cl)cc(-n3nc(N)c(=O)[nH]c3=O)cc2Cl)n[nH]c1=O (stereo not shown)  human thyroid receptor beta ligand-binding domain (LBD) (Homo sapiens)             EC50    250 to 1000 nM
 8  O=c1cc(-c2ccc3ccccc3c2)c(Oc2c(Cl)cc(-n3ncc(=O)[nH]c3=O)cc2Cl)n[nH]1  human thyroid receptor beta ligand-binding domain (LBD) (Homo sapiens)             EC50           < 50 nM
 9  Cc1cc(-n2nc(C#N)c(=O)[nH]c2=O)cc(C)c1Cc1cnc2[nH]cc(C(C)C)c2n1  human thyroid receptor beta ligand-binding domain (LBD) (Homo sapiens)             EC50      50 to 250 nM
10  Nc1nn(-c2cc(Cl)c(Oc3cc(C4Cc5ccccc54)c(=O)[nH]n3)c(Cl)c2)c(=O)[nH]c1=O (single isomer, unassigned) [Compound 166]  human thyroid receptor beta ligand-binding domain (LBD) (Homo sapiens)             EC50      50 to 250 nM
11  O=c1cnn(-c2cc(Cl)c(Oc3cc(-c4ccc5sccc5c4)c(=O)[nH]n3)c(Cl)c2)c(=O)[nH]1  human thyroid receptor beta ligand-binding domain (LBD) (Homo sapiens)             EC50        > 25000 nM
12  CC(C)c1c[nH]c2ccc(Oc3c(Cl)cc(-n4nc(N)c(=O)[nH]c4=O)cc3Cl)cc12  human thyroid receptor beta ligand-binding domain (LBD) (Homo sapiens)             EC50           < 50 nM
13  Nc1nn(-c2cc(Cl)c(Oc3cc(-c4ccccc4)c(=O)[nH]n3)c(Cl)c2)c(=O)[nH]c1=O  human thyroid receptor beta ligand-binding domain (LBD) (Homo sapiens)             EC50      50 to 250 nM
14  Nc1nn(-c2cc(Cl)c(Oc3n[nH]c(=O)cc3-c3ccn4cncc4c3)c(Cl)c2)c(=O)[nH]c1=O  human thyroid receptor beta ligand-binding domain (LBD) (Homo sapiens)             EC50        > 25000 nM
15  N#Cc1nn(-c2cc(Cl)c(Oc3ccc4[nH]cc(C(=O)N5CCc6ccccc6C5)c4c3)c(Cl)c2)c(=O)[nH]c1=O  human thyroid receptor beta ligand-binding domain (LBD) (Homo sapiens)             EC50        > 25000 nM
16  CCC(C)c1cc(Oc2c(Cl)cc(-n3nc(N)c(=O)[nH]c3=O)cc2Cl)n[nH]c1=O (stereo not shown) [Compound 39-B]  human thyroid receptor beta ligand-binding domain (LBD) (Homo sapiens)             EC50           < 50 nM
17  Nc1nn(-c2cc(Cl)c(Oc3n[nH]c(=O)cc3-c3ccc4ccnnc4c3)c(Cl)c2)c(=O)[nH]c1=O  human thyroid receptor beta ligand-binding domain (LBD) (Homo sapiens)             EC50        > 25000 nM
18  CCc1cccc(-c2cc(=O)[nH]nc2Oc2c(Cl)cc(-n3nc(N)c(=O)[nH]c3=O)cc2Cl)c1  human thyroid receptor beta ligand-binding domain (LBD) (Homo sapiens)             EC50        > 25000 nM
19  N#Cc1nn(-c2cc(Cl)c(Oc3ccc4[nH]cc(C#N)c4c3)c(Cl)c2)c(=O)[nH]c1=O  human thyroid receptor beta ligand-binding domain (LBD) (Homo sapiens)             EC50           < 50 nM
20  Nc1nn(-c2cc(Cl)c(Oc3cc(-c4cccc(Cl)c4)c(=O)[nH]n3)c(Cl)c2)c(=O)[nH]c1=O  human thyroid receptor beta ligand-binding domain (LBD) (Homo sapiens)             EC50           < 50 nM
21  Cc1cc(-c2nn(C)c(=O)[nH]c2=O)cc(C)c1Cc1ccc2[nH]cc(C(C)C)c2n1  human thyroid receptor beta ligand-binding domain (LBD) (Homo sapiens)             EC50           < 50 nM
22  Nc1nn(-c2cc(Cl)c(Oc3cc(C4Cc5ccccc5C4)c(=O)[nH]n3)c(Cl)c2)c(=O)[nH]c1=O  human thyroid receptor beta ligand-binding domain (LBD) (Homo sapiens)             EC50      50 to 250 nM
23  CC(c1cc(Oc2c(Cl)cc(-n3nc(N)c(=O)[nH]c3=O)cc2Cl)n[nH]c1=O)C1CC(F)(F)C1 (single isomer, unassigned) [Compound 61-B]  human thyroid receptor beta ligand-binding domain (LBD) (Homo sapiens)             EC50      50 to 250 nM
24  Nc1nn(-c2cc(Cl)c(Oc3n[nH]c(=O)cc3-c3ccn4nccc4c3)c(Cl)c2)c(=O)[nH]c1=O  human thyroid receptor beta ligand-binding domain (LBD) (Homo sapiens)             EC50  1000 to 25000 nM
25  Nc1nn(-c2cc(Cl)c(Oc3cc(Cc4ccc(=O)[nH]n4)c(=O)[nH]n3)c(Cl)c2)c(=O)[nH]c1=O  human thyroid receptor beta ligand-binding domain (LBD) (Homo sapiens)             EC50  1000 to 25000 nM
26  Nc1nn(-c2cc(Cl)c(Oc3cc([C@H]4C[C@H](O)C4)c(=O)[nH]n3)c(Cl)c2)c(=O)[nH]c1=O  human thyroid receptor beta ligand-binding domain (LBD) (Homo sapiens)             EC50  1000 to 25000 nM
27  CCCCCc1n[nH]c2ccc(Cc3c(C)cc(-n4nc(C#N)c(=O)[nH]c4=O)cc3C)cc12  human thyroid receptor beta ligand-binding domain (LBD) (Homo sapiens)             EC50           < 50 nM
